Test: yeast display, Sf9 membrane polyspecificity reagent, FACS + sequencing; frameworks hold sequencing errors
parameter-measured: polyreactivity (PSR sort gate)

polyreactivity (PSR sort gate) lookup needed for `QVQLVESGGGFVQAGGSLRLSCAASGRTFPEYDMGRYRQAPGKERELVAAISTSGGSTYYADSVKGRFTISRDIAKNTVYLQMNSLKPEDTGVYYCAAQVTSIWGFTYAYRYDYWGQGTHVTVSS` , thanks.
low polyreactivity

polyreactivity (PSR sort gate) lookup needed for `QVQLVESGGGLVQAGGSLRLSCAASGSTFYQYAMGWYRQAPGKERELVAAISKSGGSTYYADSVKGRFTISRDYSKNTVYLQMNSLKPDDTSVYYCATRWIKGRKMDYWGQGTQVTVSS` , thanks.
high polyreactivity

polyreactivity (PSR sort gate) lookup needed for `QVQLVESGGGLVPARGSLRLSCAASGSTFSDNAMGWYRQAPGKERELVAAINWSVGSTYYADSVKGRFTISRDNAKNTVYLQMNRRKPEDTAVYYCAGGYSLYESLVIFDYWGQGTQVTVSS` , thanks.
low polyreactivity

polyreactivity (PSR sort gate) lookup needed for `QVQLVESGGGLVQAGGSLRLRCAASGYTLTPYTMGWYRQAPGKERELVAAINRSGGSTYYADSVKGRFTISRDNAKNTVYLQMNSLKPEDTAVYYCAAYGYYNFGYYYWGQGTQVTVSS` , thanks.
high polyreactivity

Next up:
polyreactivity (PSR sort gate) lookup needed for `QDQLVESGGGLFQAGGSLRLSCAASGRTFYTYAMGRYRPAPRKERELVAAITSGDGTYYADSVKGRFTISRDNAKNTVYLQMNSLKPEDTAVYYCADTRTYQLYRWAPRYYYWGQGTQVTVSS` , thanks.
high polyreactivity

====

Test: yeast display, Sf9 membrane polyspecificity reagent, FACS + sequencing; frameworks hold sequencing errors
parameter-measured: polyreactivity (PSR sort gate)

Guide cases for polyreactivity (PSR sort gate), answers given:
polyreactivity (PSR sort gate) lookup needed for `QVQLQESGGGLEQAGGSLRKSCAANGNIFDADIVGRYRQAPGKKPELVDSITDGGITNYADSVKGRFTISRDNAKYTVYLQMNIQNPEDTAVYYCASIAYPDIPTFFDYYSYFFYWGQGTQVTVSS` , thanks.
high polyreactivity

polyreactivity (PSR sort gate) lookup needed for `QVQLVESGGGLVQAGGSLRLSCAASGLTIYYYAMGWYRQAPGKERELVAAITWRGGSTYYADSVKGRFTISRDNAKNTVYLQMNSLKPEDTAVYYCAADPGPYGYYYWGQGTQVTVSS` , thanks.
low polyreactivity

polyreactivity (PSR sort gate) lookup needed for `QVQLVESGGGLVQAGGSIRLSCAASGRTFPVNAMGWYRQAPGKERELVAAITTNGGRTYYADSVKGRFTISRDNEKNTVYLQMNSLKPEDTAVYYCATGAYTDKRYGYWGQGTQVTVSS` , thanks.
high polyreactivity

polyreactivity (PSR sort gate) lookup needed for `QVQLQESGGGLVQACGSLRLSCAASGYISHADEMGWYRQAPGKEHELVASISNGGSTNYADSVKGRFTMSRDNAKNTVYLQMNSLKSEDTAVYYCAAWTGQVDIHYYWGQGTKVTVSS` , thanks.
low polyreactivity

Next up:
polyreactivity (PSR sort gate) lookup needed for `QVQLVESGGGLVQAGGSLRLSCAASGSIFGGYAMGWYRQAPGKERELVATSYADSVKGRFTISRDIAKNTVYLQMNSLKPEDTAVYYCAADPPLEGVHGYNYWGQGTQVTVSS` , thanks.
low polyreactivity

Where these numbers come from: the nanobody polyreactivity screen of Harvey et al. (2022)
